- Test system: Collinsella aerofaciens
- assay.procedure: In vitro antimicrobial activity against anaerobic bacteria aerofaciens 1235
- Type: functional
# maps each entry to its MIC

[
  {
    "compound": "CC[C@H]1OC(=O)C[C@@H](O)[C@H](C)[C@@H](O[C@@H]2O[C@H](C)[C@@H](O)[C@H](N(C)C)[C@H]2O)[C@@H](CCOc2ccc(C(=O)c3ccccc3)cc2)C[C@@H](C)C(=O)/C=C/C(C)=C/[C@@H]1CO[C@@H]1O[C@H](C)[C@@H](O)[C@@H](OC)[C@H]1OC",
    "unit.string": "µg/mL",
    "censoring.operator": "<",
    "MIC": 0.5
  },
  {
    "compound": "CC[C@H]1OC(=O)C[C@@H](O)[C@H](C)[C@@H](O[C@@H]2O[C@H](C)[C@@H](O[C@H]3C[C@@](C)(O)[C@@H](O)[C@H](C)O3)[C@H](N(C)C)[C@H]2O)[C@@H](CC=O)C[C@@H](C)C(=O)/C=C/C(C)=C/[C@@H]1CO[C@@H]1O[C@H](C)[C@@H](O)[C@@H](OC)[C@H]1OC [TYLOSIN]",
    "unit.string": "µg/mL",
    "censoring.operator": "=",
    "MIC": 0.12
  },
  {
    "compound": "CC[C@H]1OC(=O)C[C@@H](O)[C@H](C)[C@@H](O[C@@H]2O[C@H](C)[C@@H](O[C@H]3C[C@@](C)(O)[C@@H](O)[C@H](C)O3)[C@H](N(C)C)[C@H]2O)[C@@H](CCO)C[C@@H](C)C(=O)/C=C/C(C)=C/[C@@H]1CO[C@@H]1O[C@H](C)[C@@H](O)[C@@H](OC)[C@H]1OC [RELOMYCIN]",
    "unit.string": "µg/mL",
    "censoring.operator": "=",
    "MIC": 1
  },
  {
    "compound": "CC[C@H]1OC(=O)C[C@@H](O)[C@H](C)[C@@H](O[C@@H]2O[C@H](C)[C@@H](O)[C@H](N(C)C)[C@H]2O)[C@@H](CCO)C[C@@H](C)C(=O)/C=C/C(C)=C/[C@@H]1CO",
    "unit.string": "µg/mL",
    "censoring.operator": "=",
    "MIC": 8
  }
]
